Field: pKi. Provide a value for each of the compounds that follow.
Target: human cathepsin S (CatS) (Homo sapiens (Human), UniProt P25774)
Sequence (P25774 115-331): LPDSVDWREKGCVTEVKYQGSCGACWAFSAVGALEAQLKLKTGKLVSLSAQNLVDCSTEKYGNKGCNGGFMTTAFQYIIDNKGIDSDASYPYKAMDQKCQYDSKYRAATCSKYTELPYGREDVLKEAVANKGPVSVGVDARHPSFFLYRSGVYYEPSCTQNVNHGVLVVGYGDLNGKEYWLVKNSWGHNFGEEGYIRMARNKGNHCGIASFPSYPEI
Assay: CatS functional enzyme assay
Assay type: biochemical
Settings: read-out: hCatS, Ki
Numbers only, as −log10 of the molar value.

For orientation, consider the following solved cases.
INSERT INTO results (compound, tgt, endpoint_name, observed_result) VALUES
  ('O=C(N[C@H](C(=O)N1C[C@H](Cl)[C@H]2OCC(=O)[C@H]21)C1CCCCC1)c1cc(F)c(-c2cncnc2)s1 [Example 37]', 'human cathepsin S (CatS) (Homo sapiens (Human), UniProt P25774)', 'pKi', 6.40),
  ('O=C(N[C@H](C(=O)N1C[C@H](Cl)[C@H]2OCC(=O)[C@H]21)C1CCCCC1)c1ccc(-c2cnccn2)s1 [Example 4]', 'human cathepsin S (CatS) (Homo sapiens (Human), UniProt P25774)', 'pKi', 6.74),
  ('O=C(N[C@H](C(=O)N1C[C@H](Cl)[C@H]2OCC(=O)[C@H]21)C1CCCCC1)c1ccc(-c2ccncc2)s1 [Example 3]', 'human cathepsin S (CatS) (Homo sapiens (Human), UniProt P25774)', 'pKi', 6.99);

Hi there! I need pKi for each item below, if you can.
1. O=C(N[C@H](C(=O)N1C[C@H](Cl)[C@H]2OCC(=O)[C@H]21)C1CCCCC1)c1ccc(-c2cccnc2)s1 [Example 2]
2. O=C(N[C@H](C(=O)N1C[C@H](Cl)[C@H]2OCC(=O)[C@H]21)C1CCCCC1)c1ccc(-c2ccccn2)s1 [Example 1]

1: 6.94; 2: 6.40
